Origin of the recorded values: paper PMC5540273

A collection of molecules and their measured %Inh
Test system: PIP5K1C
Details: concentration: 1 μM, replicates: in singlicate; n = 1;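 further: KINOMEscan kinase panel screen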
quantity kind: %Inh (%)

                                   molecule  quantity_kind  unit_symbol  meas_value
0  Cc1ccc(F)c(C(=O)Nc2cccc(-c3nn4ccccc4c3-c3ccnc(Nc4cccc(F)c4)n3)c2)c1F [GSK361061]           %Inh            %           6
1  O=C(O)C(F)(F)F.O=C(O)C(F)(F)F.O=c1[nH]ccc2nc(N[C@@H]3CCCNC3)nc(Nc3ccc(S(=O)(=O)N4CCOCC4)cc3)c12 [GSK2177277]           %Inh            %          76
2  COCCOCCOc1cc2ncc3c4ccc(C#N)cc4[nH]c3c2cc1OC           %Inh            %          63
3  CN(C)S(=O)(=O)c1cc(-c2ccc3nccc(-c4cccc(S(N)(=O)=O)c4)c3c2)cnc1N [GSK1669921]           %Inh            %          36

----------
System: CAMK2G
Conditions: concentration: 1 μM, replicates: in singlicate; n = 1
%Inh: recorded values
quantity kind: %Inh (%)

>>> df
                                    compound  quantity_kind  meas_value
 0  COc1cccc(NC(=O)NC2CCN(c3ccnc(Nc4cc(OC)c(OC)c(OC)c4)n3)C2)c1 (stereo not shown) [GSK1379763]           %Inh          38
 1  C[C@@H]1CC[C@@H](C(=O)Nc2ccccc2)CN1c1cc(-c2ccc3c(N)n[nH]c3c2)nc(N)n1 [GSK2286062]           %Inh          18
 2  CC(C)(C)c1ccc2nccc(Nc3cccc(O)c3)c2c1 [GW856795]           %Inh           0
 3  Cn1cc(-c2[nH]c3cc(NC(=O)[C@H](N)C4CCCCC4)cc4c3c2C=NNC4=O)cn1           %Inh          73
 4  Cn1cc(-c2ccc3c(c2)CCN3C(=O)Cc2cccc(Cl)c2)c2c(N)ncnc21 [GSK2606590]           %Inh          25
 5  Clc1ccc(-c2nn3ncccc3c2-c2ccnc(Nc3ccc4c(c3)OCCO4)n2)cc1 [GW829116]           %Inh           0
 6  Cl.NC(=O)c1cccc(Nc2nccc(Nc3ccc(Oc4c(Cl)cccc4Cl)c(Cl)c3)n2)c1 [GW659009]           %Inh           0
 7  O=C(Nc1cccc(-c2nn3ncccc3c2-c2ccnc(Nc3ccccc3)n2)c1)c1c(F)cccc1F [GSK198271]           %Inh           8
 8  Cc1cccc(NC(=O)Nc2ccc(Oc3ncnc4ccn(C)c34)cc2)c1           %Inh           0
 9  COc1ccc(Nc2nccc(NCCNC(=O)c3cc4ccccc4s3)n2)cc1 [GSK1379896]           %Inh          16
10  COc1ccc(-c2coc3ccc(-c4nnc(SCc5ccc(OC)c(C(F)(F)F)c5)o4)cc23)cc1           %Inh           0
11  Cl.Cl.NCC(NC(=O)c1cc(-c2ccccc2)c(-c2ccnc3[nH]ccc23)s1)c1ccccc1 (stereo not shown) [GSK1321561]           %Inh           0
12  CN(C)Cc1ccc(-c2ccc3c(Nc4ccc(Oc5ccccn5)cc4)ccnc3c2)o1 [GW567148]           %Inh          15
13  Cc1occc1-c1ncc(OC[C@@H](N)Cc2c[nH]c3ccccc23)cc1-c1ccc2[nH]nc(C)c2c1.O=C(O)C(F)(F)F [GSK682037]           %Inh          52
14  Cc1ccc(C)c(NC(=O)NC2CCN(c3ccnc(Nc4ccc(F)cc4)n3)C2)c1 (stereo not shown) [GSK1379720]           %Inh           4
15  COC(=O)Nc1nc2cc(Oc3ccc(NC(=O)Nc4cc(C(F)(F)F)ccc4F)cn3)ccc2[nH]1.Cl.Cl [GW681170]           %Inh          57

----------
This listing pairs compounds with measured %Inh.
Test system: NDR1
Construct: gene STK38
Settings: concentration: 1 μM, replicates: in singlicate; n = 1
quantity kind: %Inh (%)

In [3]: df
Out[3]:
                                    compound  unit_symbol  meas_value
 0  COc1cc(Nc2nccc(N3CCC(NC(=O)Nc4cccc(C(C)=O)c4)C3)n2)cc(OC)c1OC (centres unmarked)            %           8
 1  COC(=O)Nc1nc2ccc(Oc3ccc(NC(=O)Nc4cc(C(F)(F)F)ccc4F)cc3)cc2n1C.Cl            %          24
 2  O=C(NC1CCN(c2ccnc(Nc3ccc(F)cc3)n2)C1)c1cc2ccccc2s1 (centres unmarked)            %           8
 3  O=C(O)C(F)(F)F.O=C(O)C(F)(F)F.O=c1[nH]ccc2nc(N[C@@H]3CCCNC3)nc(Nc3ccc(S(=O)(=O)N4CCOCC4)cc3)c12            %        97.4
 4  COc1cc(Nc2nccc(N3CCC(NC(=O)c4cc5ccccc5s4)C3)n2)cc(OC)c1OC (centres unmarked)            %          12
 5  Cn1cc(-c2[nH]c3cc(NC(=O)[C@H](N)C4CCCCC4)cc4c3c2C=NNC4=O)cn1            %        93.1
 6  O=C(Nc1cccc(-c2nn3ccccc3c2-c2ccnc(Nc3cccc(C(F)(F)F)c3)n2)c1)c1c(F)cccc1F            %           0
 7  Cc1ccc(S(=O)(=O)Nc2ccc(Nc3nccc(Nc4cccc5[nH]ncc45)n3)cc2)cc1            %           0
 8  Clc1ccc(-c2nn3ncccc3c2-c2ccnc(Nc3ccc4c(c3)OCCO4)n2)cc1            %          34
 9  COc1cc(Nc2nccc(-c3c(-c4cccc(NC(=O)c5c(F)cccc5F)c4)nn4ccccc34)n2)cc(OC)c1OC            %          22
10  Cc1ccc(F)c(C(=O)Nc2cccc(-c3nn4ccccc4c3-c3ccnc(Nc4cccc(F)c4)n3)c2)c1F            %          15
11  COc1cc(Nc2ncc3c(C)nc(-c4cc5ccccc5[nH]4)n3n2)cc(OC)c1OC            %          10
12  COc1ccc(CNC(=O)NC2CCN(c3ccnc(Nc4ccc(F)cc4)n3)CC2)cc1            %           7
13  Cl.Cl.NCC(NC(=O)c1cc(-c2ccccc2)c(-c2ccnc3[nH]ccc23)s1)c1ccccc1 (centres unmarked)            %          24
14  COC(=O)Nc1nc2cc(Oc3ccc(NC(=O)Nc4cc(C(F)(F)F)ccc4F)cn3)ccc2[nH]1.Cl.Cl            %          20
15  C[C@@H](Oc1cc(-n2cnc3cc(-c4ccnc(NCCS(C)(=O)=O)c4)ccc32)sc1C(N)=O)c1ccccc1Cl            %           0
16      c1ccc(-c2n[nH]cc2Nc2ccnc3ccccc23)nc1            %           0
17  CCS(=O)(=O)c1ccc(OC)c(Nc2nccc(-c3c(-c4cccc(NC(=O)c5c(F)cccc5F)c4)nn4ncccc34)n2)c1            %           0
18  Cc1ccc(C(=O)N2CC[C@@H](O)C2)cc1-n1c(C)cc(OCc2ccc(F)cc2F)c(Br)c1=O            %          26
19  CC(C)c1nc(-c2cccc(NS(=O)(=O)c3c(F)cccc3F)c2F)c(-c2ccnc(Nc3ccc(N4CCOCC4)nc3)n2)s1            %          62
20  Cc1ccc(C(=O)Nc2ccc(Nc3ccnc4cc(-c5nccs5)ccc34)cc2O)cc1.Cl            %           2
21  FC(F)(F)c1ccc(/C=C/c2cncnc2Nc2ccc3[nH]c(Cc4ccccc4)nc3c2)cc1            %          21
22  COCCOCCOc1cc2ncc3c4ccc(C#N)cc4[nH]c3c2cc1OC            %          60
23  Cn1cc(-c2ccc3c(c2)CCN3C(=O)Cc2cccc(F)c2)c2c(N)ncnc21            %           0
24  Cc1occc1-c1ncc(OC[C@@H](N)Cc2c[nH]c3ccccc23)cc1-c1ccc2[nH]nc(C)c2c1.O=C(O)C(F)(F)F            %          30
25  COc1cccc(C(=O)Nc2cccc(Oc3ccc4nc(NC(=O)C5CC5)cn4n3)c2)c1            %          19
26  Fc1ccc(-c2ncn(C3CCNCC3)c2-c2ccnc(Oc3ccc(-c4ccccc4)cc3)n2)cc1            %          31
27        Nc1ncnc2c1nc(-c1ccccc1)n2-c1ccccc1            %          32
28      CC(C)(C)c1ccc2nccc(Nc3cccc(O)c3)c2c1            %           0
29  Cn1cc(-c2ccc3c(c2)CCN3C(=O)Cc2cccc(Cl)c2)c2c(N)ncnc21            %           0
30  CN1CCN(Cc2cccc(-c3ccc4c(Nc5ccc(Oc6ccccc6)cc5)ccnc4c3)c2)CC1            %          14
31  CN(C)S(=O)(=O)c1cc(-c2ccc3nccc(-c4cccc(S(N)(=O)=O)c4)c3c2)cnc1N            %          17
